# system tested: HIV-1LAI envelope gp120 labeled with radioactive iodine (HIV-1 LAI), P03377
# assay name: 125I-gp120, peptide array
The entries below come with measured counts minus background (counts per 20 min) values attached.
Please give the numeric answer without any surrounding text.

Below, 5 binders whose answers are already recorded.
Prompt: Value lookup for counts minus background (counts per 20 min); key = TVTFGVVTSVITWVVAVF (modifications not checked) [CCR5 141-158]
Response: -25

Prompt: Value lookup for counts minus background (counts per 20 min); key = TVNLYSSVLILAFISLDR (modifications not checked) [CXCR4 117-134]
Response: 242

Prompt: Value lookup for counts minus background (counts per 20 min); key = LTVPFWAHYAAAQWDFGN (modifications not checked) [CCR5 81-98]
Response: 306

Prompt: Value lookup for counts minus background (counts per 20 min); key = LPPLYSLVFIFGFVGNML (modifications not checked) [CCR5 33-50]
Response: 705

Prompt: Value lookup for counts minus background (counts per 20 min); key = CQLLTGLYFIGFFSGIFF (modifications not checked) [CCR5 101-118]
Response: 489

We now examine a further binder.
Prompt: Value lookup for counts minus background (counts per 20 min); key = LPYYIGISIDSFILLEII (modifications not checked) [CXCR4 253-270]
Response: 439
